These data points were gathered from patent US20130230533A1.

Each entry below carries its reported % Blockade of IFNγ release, MLR; D2.
Assayed System: T1, human CD48 (on primary human peripheral blood mononuclear cells) (human, UniProt P09326 27-220)
T1 sequence: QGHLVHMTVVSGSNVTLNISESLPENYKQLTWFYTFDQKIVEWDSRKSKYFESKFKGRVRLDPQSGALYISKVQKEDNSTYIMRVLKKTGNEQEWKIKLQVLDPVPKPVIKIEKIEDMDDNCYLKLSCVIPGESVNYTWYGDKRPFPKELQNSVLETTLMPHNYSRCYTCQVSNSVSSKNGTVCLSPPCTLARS
Procedure Text: cell-based or functional assay
Respond numerically; units are % and should not be typed.

Known % Blockade of IFNγ release, MLR; D2 results, listed for orientation:
Binder	% Blockade of IFNγ release, MLR; D2 [%]
H4H1769Pa (antibody, human IgG4, V domains shown) VH: QVQLVQSGAEVKKPGASVKVSCKTSGYTFAGYGITWVRQAPGRGLEWMGWVSAYNGDTDYAQSLQGRVTMTTDTSTSTAYMELRSLRSDDTAMYYCARDRYSSSSGYFDYWGQGTLVTVSS VL: DIQMTQSPSSVSASVGDRVTITCRASQGISSWLAWHQQKPGKAPKVLIYAASSLHSGVPSRFSGSGSGTEFTLTISSLQPEDFATYYCQQANTFPYTFGQGTKLEIK	60
H4H1763N (antibody, human IgG4, V domains shown, Human IgG4 Fc (H4H) form of 1763N) VH: QIQLVQSGAEMKRPGTSVKVSCKASGYTFTSYGINWVRQAPGQGLEWMGWISAYNGDTNYAQKLQGRVTMTTDTSTTTAYMEVRSLRSDDTAVYYCARFLTGTKDYYYGMDVWGQGTTVTVSS VL: DIQMTQSPSSLSASVGDRVTITCQASQDISNFLNWYQQKPGKAPDLLINDASILETGVPSRFSGSGSGTDFTLTINNLQPEDIATYYCQQYDNLPLTFGGGTKVEIK	89

Next up:
Record H4H1772P (antibody, human IgG4, V domains shown, Human IgG4 Fc (H4H)) VH: EVQLVESGGGLVQPGGSLRLSCAASGFTFSSYWMSWVRQAPGKGLEWVANIMRDGSEKYYVDSVKGRFTISRDNAKNSLYLQMNSLRGEDTAVYYCARERGFYTNYGNWFDPWGQGTLVTVSS VL: DIVMTQSPLSLTVTPGESASISCRSSQSLLHSYGYNSLDWYLQKPGQSPQFLIYLVSNRASGVPDRFSGSGSGTDFTLKISRVEAEDVGVYYCMQVLQTPYTFGQGTKLEIK , field % Blockade of IFNγ release, MLR; D2: 65
